- study.system: Recombinant human GR (Homo sapiens (Human), UniProt P04150)
- Sequence (P04150 whole entry): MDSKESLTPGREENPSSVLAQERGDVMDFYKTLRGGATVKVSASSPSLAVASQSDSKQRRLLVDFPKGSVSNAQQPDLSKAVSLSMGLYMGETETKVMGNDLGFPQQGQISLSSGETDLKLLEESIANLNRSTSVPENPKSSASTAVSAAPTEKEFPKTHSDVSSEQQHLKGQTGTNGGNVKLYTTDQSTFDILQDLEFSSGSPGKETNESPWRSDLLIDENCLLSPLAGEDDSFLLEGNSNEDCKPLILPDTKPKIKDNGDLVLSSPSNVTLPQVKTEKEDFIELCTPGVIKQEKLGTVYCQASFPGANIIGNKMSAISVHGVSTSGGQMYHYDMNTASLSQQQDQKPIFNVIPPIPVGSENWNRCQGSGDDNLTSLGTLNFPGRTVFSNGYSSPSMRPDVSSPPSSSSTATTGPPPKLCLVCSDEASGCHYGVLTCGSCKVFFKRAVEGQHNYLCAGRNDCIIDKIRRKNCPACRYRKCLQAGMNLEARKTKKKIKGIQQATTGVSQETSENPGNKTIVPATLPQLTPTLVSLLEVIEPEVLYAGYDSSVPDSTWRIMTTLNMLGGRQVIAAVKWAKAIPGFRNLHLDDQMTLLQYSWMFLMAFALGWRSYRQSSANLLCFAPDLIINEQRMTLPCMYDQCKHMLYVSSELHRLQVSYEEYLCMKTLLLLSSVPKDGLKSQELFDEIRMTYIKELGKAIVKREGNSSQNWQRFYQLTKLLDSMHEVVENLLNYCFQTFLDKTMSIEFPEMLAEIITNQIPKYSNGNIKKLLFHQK
- assay: GR competitive binding assay by fluorescence polarization
- experimental.setup: 20 μM test compound solution, 10 μL/well; 2 hours; DEX positive control; read-out: GR binding rate (%)
measure.name: inhibition at 10 µM

molecule: COc1cc(OCC(O)CC(=O)N2CCCC2)ccc1-c1ccc2c(c1COc1cc(F)ccc1C)N(C)C(=O)C(C)(C)N2 (stereo not drawn)
inhibition at 10 µM: 94%
--
molecule: COc1cc(OC[C@H](C)OP(=O)(O)O)ccc1-c1ccc2c(c1COc1cc(F)ccc1C)N(C)C(=O)C(C)(C)N2
inhibition at 10 µM: > 99%
--
molecule: COc1cc(OCC(O)CC(=O)O)ccc1-c1ccc2c(c1COc1cc(F)ccc1C)N(C)C(=O)C(C)(C)N2 (stereo not drawn)
inhibition at 10 µM: > 99%
--
molecule: CCOC(=O)CC(O)COc1ccc(-c2ccc3c(c2COc2cc(F)ccc2C)N(C)C(=O)C(C)(C)N3)c(OC)c1 (stereo not drawn)
inhibition at 10 µM: > 99%

Quick request: inhibition at 10 µM for each listed item, please.
1. COc1cc(OC[C@H](O)CC#N)ccc1-c1ccc2c(c1COc1cc(F)ccc1C)N(C)C(=O)C(C)(C)N2
2. COc1cc(OCC(O)CC(=O)N2CCCCC2)ccc1-c1ccc2c(c1COc1cc(F)ccc1C)N(C)C(=O)C(C)(C)N2 (stereo not drawn)
3. COc1cc(OCCO)ccc1-c1ccc2c(c1COc1cc(F)ccc1C)N(C)C(=O)C(C)(C)N2
4. COc1cc(OC[C@H](C)OC(=O)CN(C)C)ccc1-c1ccc2c(c1COc1cc(F)ccc1C)N(C)C(=O)C(C)(C)N2
5. COc1cc(OCC(O)CC(=O)N2CCOCC2)ccc1-c1ccc2c(c1COc1cc(F)ccc1C)N(C)C(=O)C(C)(C)N2 (stereo not drawn)

88%
> 99%
> 99%
99%
> 99%

----------
Provide the recorded inhibition at 10 µM for the entries that follow.
- study.system: Recombinant human GR (Homo sapiens (Human))
- assay: GR competitive binding assay by fluorescence polarization
- experimental.setup: 20 μM test compound solution, 10 μL/well; 2 hours; DEX positive control; read-out: GR binding rate (%)
Numbers only, in %.

compound: COc1cc(OC[C@H](O)CO)ccc1-c1ccc2c(c1COc1cc(F)ccc1C)N(C)C(=O)C(C)(C)N2 [Compound 4-3]
measured: 88

Please look up its inhibition at 10 µM: COCOc1ccc(-c2ccc3c(c2COc2cc(F)ccc2C)N(C)C(=O)C(C)(C)N3)c(OC)c1 [Control compound F, reference compound]
94
